# System: KB
# method: Cytotoxicity against human KB cells after 72 hrs by MTT assay
# Format: functional, cell-based
parameter: IC50

Form field: reported IC50 of COc1cc(/C=N/O)nc(-c2ccccn2)c1
> 50 µM

FYI, the data here is from ChEMBL document CHEMBL1821591.
